# Test Protocol: Critical micelle concentration (CMC) by dye solubilization (Orange OT or DPH)
# Format: physicochemical
# Condition: determined by DPH (diphenylhexatriene) or Orange OT
Assay Readout: CMC

{"Compound": "CCCCC(CCCC)(CC(=O)NC(CO[C@@H]1O[C@H](CO)[C@@H](O)[C@H](O)[C@H]1O)CO[C@@H]1O[C@H](CO)[C@@H](O)[C@H](O)[C@H]1O)c1ccc(C(C)(C)C)cc1", "Assay Readout": "CMC", "Measurement": "0.42 mM"}
{"Compound": "CC(C)(C)CC(C)(C)c1ccc(OCC(=O)NCCC[N+](C)(C)[O-])cc1 [Triton-N-oxide]", "Assay Readout": "CMC", "Measurement": "1.1 mM"}
{"Compound": "CCCCC(CCCC)(CC(=O)NC(CO[C@@H]1O[C@H](CO)[C@@H](O)[C@H](O)[C@H]1O)(CO[C@@H]1O[C@H](CO)[C@@H](O)[C@H](O)[C@H]1O)CO[C@@H]1O[C@H](CO)[C@@H](O)[C@H](O)[C@H]1O)c1ccc(-c2ccccc2)cc1", "Assay Readout": "CMC", "Measurement": "3.7 mM"}
{"Compound": "CCCCC(CCCC)(CC(=O)NC(CO[C@@H]1O[C@H](CO)[C@@H](O[C@H]2O[C@H](CO)[C@@H](O)[C@H](O)[C@H]2O)[C@H](O)[C@H]1O)CO[C@@H]1O[C@H](CO)[C@@H](O[C@H]2O[C@H](CO)[C@@H](O)[C@H](O)[C@H]2O)[C@H](O)[C@H]1O)C1CCCCC1", "Assay Readout": "CMC", "Measurement": "1.9 mM"}
{"Compound": "CCCCCCC(CCCCCC)(CC(=O)NC(CO[C@@H]1O[C@H](CO)[C@@H](O)[C@H](O)[C@H]1O)(CO[C@@H]1O[C@H](CO)[C@@H](O)[C@H](O)[C@H]1O)CO[C@@H]1O[C@H](CO)[C@@H](O)[C@H](O)[C@H]1O)c1ccccc1", "Assay Readout": "CMC", "Measurement": "1.4 mM"}

For the 5 compounds below, give their CMC values.
1. CCCCC(CCCC)(CC(=O)NC(COC1OC(CO)C(OC2OC(CO)C(O)C(O)C2O)C(O)C1O)COC1OC(CO)C(OC2OC(CO)C(O)C(O)C2O)C(O)C1O)c1ccc(-c2ccccc2)cc1 (stereo not shown)
2. CCCCCCCCCCCCC(=O)NC(CO[C@@H]1O[C@H](CO)[C@@H](O)[C@H](O)[C@H]1O)(CO[C@@H]1O[C@H](CO)[C@@H](O)[C@H](O)[C@H]1O)CO[C@@H]1O[C@H](CO)[C@@H](O)[C@H](O)[C@H]1O
3. CCCCC(CCCC)(CC(=O)NCCC[N+](C)(C)[O-])c1ccccc1 [TPA0, reference compound]
4. CCCCC(CCCC)(CC(=O)NC(CO[C@@H]1O[C@H](CO)[C@@H](O)[C@H](O)[C@H]1O)(CO[C@@H]1O[C@H](CO)[C@@H](O)[C@H](O)[C@H]1O)CO[C@@H]1O[C@H](CO)[C@@H](O)[C@H](O)[C@H]1O)c1ccc(C(C)(C)C)cc1
5. CCCCC(CCCC)(CC(=O)NC(COC1OC(CO)C(O)C(O)C1O)COC1OC(CO)C(O)C(O)C1O)c1ccc(C)cc1 (stereo not shown)

# output
1.7 mM
4.4 mM
4.4 mM
3.4 mM
2.4 mM
